# System: CD2F1 mice, L1210 leukemia ip, survival T/C
# Protocol Text: NCI In Vivo Anticancer Drug Screen. Data for tumor model L1210 Leukemia (intraperitoneal) in CD2F1 (CDF1) mice
# Assay Conditions: endpoint: mean survival time; dose: 200.0 mg/kg/injection; schedule: Q04DX003 (ip); vehicle: saline with Tween-80; higher = longer survival
Inconclusive results and toxic doses are left out.
Listed below: T/C values for each entry.

Example entries and their recorded answers appear below.
CCCc1cc(CCC)n2nc(N)nc2n1; 94 % of control
N#CCCC1C(=O)CCCC1=O; 89 % of control
c1ccc(P(c2ccccc2)c2ccccc2)cc1; 100 % of control
CCOC(OCC)c1nc(N)[nH]c(=O)c1CCCCc1ccccc1; 87 % of control
CCOC(=O)c1cc2ccccc2n1-c1ccccc1; 97 % of control
O=C1c2ccccc2C(=O)N1c1ccccc1-c1ccccc1; 92 % of control

## Task # T/C lookup, item Cc1ccccc1C(C)(C#N)Nc1ccccc1 (centres undefined)
## Result 103 % of control

## Task Another compound: O=C(NC(O)C(Cl)(Cl)Cl)C(Cl)(Cl)Cl (centres undefined)
## Result 105 % of control

## Task What would you report for "COc1c(C)c(Br)c(OC)c2ccccc12" ?
## Result 94 % of control

## Task Note, next up: "N#C/C=C1\NC(=O)CS1"
## Result 100 % of control

## Task What do we get for CCCCCC(/C=C/C1C=CC(=O)C1C/C=C/CCCC(=O)OC)OC(C)=O (centres undefined) ?
## Result 100 % of control

## Task Now this one: "COc1cc([N+](=O)[O-])ccc1NC(=O)Nc1nccs1"
## Result 95 % of control

## Task Proceed to "COc1cc2c(cc1OC)C(Cc1ccc3cc(OC)c(OC)cc3c1)=NCC2"
## Result 89 % of control
